Task for the reader: assign each of the following compounds its reported IC50.
target: human Chk1 (GST-Chk1) (Homo sapiens); construct: made in house; host or cells: insect cells (baculovirus, Bac-to-Bac); experiment: Chk1 DELFIA kinase assay (2 nM GST-Chk1, 600 μM ATP); format: biochemical; settings: Biotin-GLYRSPSMPEN-amide substrate

# batch: return IC50 for each of the 4 compounds below
1. Cc1[nH]nc2c1c(=O)n(CCCN)c1ccc(NC(=O)CN(C)C)cc21
2. Cc1[nH]nc2c1c(=O)n(CCCN)c1ccc(C#CC(C)O)cc21 (stereo not drawn)
3. Cc1[nH]nc2c1c(=O)n(CCCNCc1ncc[nH]1)c1ccc(Cl)cc21
4. Cc1[nH]nc2c1c(=O)n(C)c1c(C#CCN)cc(Cl)cc21

1: < 1000 nM; 2: < 1000 nM; 3: < 1000 nM; 4: < 1000 nM

# batch: return IC50 for each of the 5 compounds below
1. COCCc1[nH]nc2c1c(=O)n(CCCN)c1ccc(F)cc21
2. CNCCCn1c(=O)c2c(CCOC)[nH]nc2c2cc(Cl)ccc21
3. Cc1[nH]nc2c1c(=O)n(CCCN)c1ccc(C(=O)NCCN(C)C)cc21
4. Cc1[nH]nc2c1c(=O)n(CCCN)c1cc(C(=O)NCCN(C)C)ccc21
5. C#Cc1ccc2c(c1)c1n[nH]c(CCOC)c1c(=O)n2CCCN

1: < 1000 nM; 2: < 1000 nM; 3: < 1000 nM; 4: < 1000 nM; 5: < 1000 nM

* * *

molecular target: human Chk1 (GST-Chk1) (Homo sapiens, UniProt O14757); construct: made in house; host or cells: insect cells (baculovirus, Bac-to-Bac); test: Chk1 FlashPlate kinase assay; format: biochemical; details: 8.7 nM GST-Chk1, 1 uM ATP, 33P incorporation into peptide substrate
Sequence (O14757 whole entry): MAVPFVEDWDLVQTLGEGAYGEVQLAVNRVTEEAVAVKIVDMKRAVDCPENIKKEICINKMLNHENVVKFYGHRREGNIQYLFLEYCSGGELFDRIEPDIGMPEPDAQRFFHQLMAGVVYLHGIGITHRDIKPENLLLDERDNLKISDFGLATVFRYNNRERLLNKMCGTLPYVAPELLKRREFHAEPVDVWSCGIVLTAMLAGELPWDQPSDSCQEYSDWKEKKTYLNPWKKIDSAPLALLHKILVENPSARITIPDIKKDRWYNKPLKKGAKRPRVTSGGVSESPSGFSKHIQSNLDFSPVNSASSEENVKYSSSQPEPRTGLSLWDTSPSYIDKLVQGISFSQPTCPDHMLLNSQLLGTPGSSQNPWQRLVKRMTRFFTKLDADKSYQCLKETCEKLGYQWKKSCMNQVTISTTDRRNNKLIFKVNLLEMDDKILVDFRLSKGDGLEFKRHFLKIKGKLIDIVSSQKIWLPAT
MEASUREMENT LABEL: IC50

# batch: return IC50 for each of the 6 compounds below
1. Cc1[nH]nc2c1c(=O)n(CCCN)c1cc(Cl)ccc21
2. COCCc1[nH]nc2c1c(=O)n(CCCN)c1ccc(Cl)cc21
3. Cc1[nH]nc2c1c(=O)n(CCCNS(=O)(=O)c1ccccc1)c1ccccc21
4. Cc1[nH]nc2c1c(=O)n(CCCNC(=O)C(N)Cc1ccc(OCc3ccccc3)cc1)c1ccccc21 (stereo not drawn)
5. Cc1n[nH]c2c1c(=O)n(CCCNC(=O)Nc1ccccc1)c1ccccc21
6. Cc1[nH]nc2c1c(=O)n(CCCNC(=O)C(N)CCCCN)c1ccccc21 (stereo not drawn)

1: < 1000 nM; 2: < 1000 nM; 3: < 1000 nM; 4: 1000 to 20000 nM; 5: < 1000 nM; 6: < 1000 nM

* * *

molecular target: human Chk1 (GST-Chk1) (Homo sapiens); construct: made in house; host or cells: insect cells (baculovirus, Bac-to-Bac); experiment: Chk1 FlashPlate kinase assay; format: biochemical; details: 8.7 nM GST-Chk1, 1 uM ATP, 33P incorporation into peptide substrate
pIC50: −log10 of the molar value.
MEASUREMENT LABEL: pIC50

Some entries whose results are on file:
>>> df
                                   molecule   measurement
0  Cc1n[nH]c2c1c(=O)n(CCCCNC(=O)c1ccccc1)c1ccc(Br)cc21        > 6.00
1  Cc1[nH]nc2c1c(=O)n(CCCNC(=O)N1CCOCC1)c1ccccc21        > 6.00
2  Cc1[nH]nc2c1c(=O)n(CCCNC(=O)CCCNC(=O)OC(C)(C)C)c1ccccc21  4.70 to 6.00

# batch: return pIC50 for each of the 2 molecules below
1. COc1ccc(C(=O)NCCn2c(=O)c3c(C)[nH]nc3c3ccccc32)cc1
2. Cc1[nH]nc2c1c(=O)n(CCCNC(=O)c1ccccc1Cl)c1ccccc21

["4.70 to 6.00", "> 6.00"]

# batch: return pIC50 for each of the 8 molecules below
1. Cc1[nH]nc2c1c(=O)n(CCCNC(=O)C(N)Cc1ccc(Cl)cc1)c1ccccc21 (stereo not shown)
2. Cc1[nH]nc2c1c(=O)n(CCCNC(=O)CCN)c1ccccc21
3. Cc1[nH]nc2c1c(=O)n(CCCN)c1ccc([N+](=O)[O-])cc21
4. Cc1[nH]nc2c1c(=O)n(CCCC#N)c1ccc(Br)cc21
5. Cc1[nH]nc2c1c(=O)n(CCNC(=O)C1CCCC1)c1ccccc21
6. Cc1[nH]nc2c1c(=O)[nH]c1c(OCCCNC(=O)OC(C)(C)C)cccc12
7. Cc1n[nH]c2c1c(=O)n(CCCN1CCc3ccccc3C1)c1ccccc21
8. Cc1n[nH]c2c1c(=O)n(CCCNC(=O)OC(C)(C)C)c1ccccc21

1: > 6.00; 2: > 6.00; 3: > 6.00; 4: > 6.00; 5: 4.70 to 6.00; 6: < 4.70; 7: > 6.00; 8: > 6.00

# batch: return pIC50 for each of the 7 molecules below
1. Cc1[nH]nc2c1c(=O)n(CCCNC(=O)CNC(=O)OC(C)(C)C)c1ccccc21
2. Cc1[nH]nc2c1c(=O)n(CCCNC(=O)c1cccnc1)c1ccccc21
3. Cc1[nH]nc2c1c(=O)n(CCCNC(=O)c1ccc(Cl)cc1)c1ccccc21
4. Cc1n[nH]c2c1c(=O)n(CC1CCN(C(=O)OC(C)(C)C)CC1)c1ccc(Br)cc21
5. Cc1[nH]nc2c1c(=O)n(CCNC(=O)c1ccc(Cl)cc1)c1ccccc21
6. COc1ccc(C(=O)NCCCn2c(=O)c3c(C)[nH]nc3c3ccccc32)cc1
7. Cc1[nH]nc2c1c(=O)n(CCCNC(=O)C1CCC(=O)N1)c1ccccc21 (stereo not shown)

1: 4.70 to 6.00; 2: > 6.00; 3: > 6.00; 4: 4.70 to 6.00; 5: 4.70 to 6.00; 6: > 6.00; 7: > 6.00
